This collection of values is drawn from ChEMBL document CHEMBL3885881.

organism: Rattus norvegicus; test: DrugMatrix - Regimen: Daily Repeat; type: toxicity, organism-based, Sprague-Dawley; set-up: regimen Daily Repeat, gender Male, age 6-8 weeks; settings: in vivo, po, 10 mg/kg, 72 h, tissue Plasma, route oral GAVAGE, dose level Low, time 3 day, vehicle .5 % CMC
Measured GLUCOSE, listed per entry.

[
  {
    "Compound": "O=C1CN=C(c2ccccc2Cl)c2cc([N+](=O)[O-])ccc2N1",
    "GLUCOSE": "163 mg/dL"
  },
  {
    "Compound": "O=C1C(CC[S+]([O-])c2ccccc2)C(=O)N(c2ccccc2)N1c1ccccc1 (centres undefined)",
    "GLUCOSE": "150.33 mg/dL"
  },
  {
    "Compound": "Fc1ccc(C(c2ccc(F)cc2)N2CCN(C/C=C/c3ccccc3)CC2)cc1",
    "GLUCOSE": "149 mg/dL"
  },
  {
    "Compound": "CNCCC(Oc1ccc(C(F)(F)F)cc1)c1ccccc1 (centres undefined)",
    "GLUCOSE": "162 mg/dL"
  }
]

* * *

species on record: Rattus norvegicus; assay: DrugMatrix - Regimen: Daily Repeat; format: toxicity, organism-based, Sprague-Dawley; set-up: regimen Daily Repeat, gender Male, age 6-8 weeks; settings: in vivo, ip, 40 mg/kg, […], tissue Blood, route intraperitoneal, dose level High, time 28 day, vehicle 100 % SALINE

[
  {
    "Sequence text": "GENTAMICIN",
    "ABSOLUTE BASOPHIL / cells/µL": 99
  }
]

* * *

species on record: Rattus norvegicus; assay: DrugMatrix - Regimen: Daily Repeat; assay type: toxicity, organism-based, Sprague-Dawley; set-up: regimen Daily Repeat, gender Male, age 6-8 weeks; conditions: in vivo, po, 10 mg/kg, 120 h, tissue Plasma, route oral GAVAGE, dose level Low, time 5 day, vehicle .5 % CMC
Measured BLOOD UREA NITROGEN, listed per entry.
Reported metric: BLOOD UREA NITROGEN (mg/dL)

[
  {
    "Compound": "O=C1CN=C(c2ccccc2Cl)c2cc([N+](=O)[O-])ccc2N1 [CLONAZEPAM]",
    "Reading": 18.67
  },
  {
    "Compound": "O=C1C(CC[S+]([O-])c2ccccc2)C(=O)N(c2ccccc2)N1c1ccccc1 (centres undefined) [SULFINPYRAZONE]",
    "Reading": 15.33
  },
  {
    "Compound": "Fc1ccc(C(c2ccc(F)cc2)N2CCN(C/C=C/c3ccccc3)CC2)cc1 [FLUNARIZINE]",
    "Reading": 14.67
  },
  {
    "Compound": "CNCCC(Oc1ccc(C(F)(F)F)cc1)c1ccccc1 (centres undefined) [FLUOXETINE]",
    "Reading": 13.67
  }
]

* * *

organism: Rattus norvegicus; test: DrugMatrix - Regimen: Daily Repeat; assay type: toxicity, organism-based, Sprague-Dawley; parameters: regimen Daily Repeat, gender Male, age 6-8 weeks; conditions: in vivo, ip, 40 mg/kg, 120 h, tissue Blood, route intraperitoneal, dose level High, time 5 day, vehicle 100 % SALINE

[
  {
    "Sequence text": "GENTAMICIN",
    "ABSOLUTE MONOCYTE": "240 cells/µL"
  }
]

* * *

species on record: Rattus norvegicus; test: DrugMatrix - Regimen: Daily Repeat; assay type: toxicity, organism-based, Sprague-Dawley; parameters: regimen Daily Repeat, gender Male, age 6-8 weeks; conditions: in vivo, po, 2000 mg/kg, 120 h, tissue Blood, route oral GAVAGE, dose level High, time 5 day, vehicle .5 % CMC
Measured MONOCYTE, listed per entry.
Reported metric: MONOCYTE (%)

[
  {
    "Compound": "CC1(C)S[C@@H]2[C@H](NC(=O)[C@H](N)c3ccccc3)C(=O)N2[C@H]1C(=O)O",
    "Reading": 1
  },
  {
    "Compound": "O=C1Nc2ccc(Cl)cc2C(c2ccccc2Cl)=NC1O (stereo unspecified)",
    "Reading": 1.5
  },
  {
    "Compound": "COc1cc2nc(N3CCN(C(=O)c4ccco4)CC3)nc(N)c2cc1OC",
    "Reading": 0
  },
  {
    "Compound": "NC1CCN(c2nc3c(cc2F)c(=O)c(C(=O)O)cn3-c2ccc(F)cc2F)C1 (stereo unspecified)",
    "Reading": 0
  },
  {
    "Compound": "CN(C/C=C/C#CC(C)(C)C)Cc1cccc2ccccc12",
    "Reading": 0
  },
  {
    "Compound": "CN/C(=N/CCSCc1nc[nH]c1C)NC#N",
    "Reading": 2.33
  }
]
